System: Amaranthus retoflexus (AMARE)
Test: Pre-emergence Test, glasshouse, AMARE
Assay type: in vivo
Settings: 250 g/ha, evaluated after 13 days
Experimental: Seeds of a variety of test species are sown in standard soil in pots Amaranthus retoflexus (AMARE), Echinochloa crus-galli (ECHCG), Setaria faberi (SETFA)). […] After 13 days for pre- and post-emergence, the test is evaluated for the percentage damage caused to the plant. […]
Listed here: items and their measured percentage damage caused to the plant, five-point scale, AMARE.
experimental_endpoint: percentage damage caused to the plant, five-point scale, AMARE

{"compound": "FC(F)(F)CCCn1ncc2c(Br)ccc(Oc3ncc(Cl)cn3)c21 [Compound 1.025]", "result": "1 (1=0-20%)"}
{"compound": "FC(F)(F)CCCn1nc(Br)c2c(Br)ccc(Oc3ncc(Cl)cn3)c21 [Compound 1.015]", "result": "2 (2=21-40%)"}
{"compound": "COc1cnc(Oc2cccc3c(Cl)nn(CCCC(F)(F)F)c23)nc1 [Compound 1.048]", "result": "4 (4=61-80%)"}
{"compound": "Fc1cc(Cl)cnc1Oc1cccc2c(Cl)nn(CCCC(F)(F)F)c12 [Compound 1.032]", "result": "3 (3=41-60%)"}
{"compound": "FC(F)(F)CCCCn1nc(Cl)c2cccc(Oc3ncc(Cl)cn3)c21 [Compound 1.068]", "result": "5 (5=81-100%)"}
{"compound": "Cc1ccc2cnn(CCCC(F)(F)F)c2c1Oc1ncc(Cl)cn1 [Compound 1.044]", "result": "2 (2=21-40%)"}
{"compound": "FC(F)(F)OCCn1nc(Cl)c2cccc(Oc3ncc(Cl)cn3)c21 [Compound 1.052]", "result": "5 (5=81-100%)"}
{"compound": "Cc1cnc(Oc2cccc3c(Cl)nn(CCCC(F)(F)F)c23)nc1 [Compound 1.049]", "result": "5 (5=81-100%)"}
{"compound": "FC(F)(F)CCn1ncc2cccc(Oc3ncc(Cl)cn3)c21 [Compound 1.042]", "result": "5 (5=81-100%)"}
{"compound": "FC(F)Cn1nc(Cl)c2cccc(Oc3ncc(Cl)cn3)c21 [Compound 1.063]", "result": "3 (3=41-60%)"}
{"compound": "Cc1cnc(Oc2cccc3c(C(F)(F)F)nn(CCCC(F)(F)F)c23)nc1 [Compound 1.070]", "result": "5 (5=81-100%)"}
